Listed molecules paired with reported pIC50
ASSAYED TARGET: Peroxisome proliferator-activated receptor gamma (Homo sapiens)
Sequence (P37231 whole entry): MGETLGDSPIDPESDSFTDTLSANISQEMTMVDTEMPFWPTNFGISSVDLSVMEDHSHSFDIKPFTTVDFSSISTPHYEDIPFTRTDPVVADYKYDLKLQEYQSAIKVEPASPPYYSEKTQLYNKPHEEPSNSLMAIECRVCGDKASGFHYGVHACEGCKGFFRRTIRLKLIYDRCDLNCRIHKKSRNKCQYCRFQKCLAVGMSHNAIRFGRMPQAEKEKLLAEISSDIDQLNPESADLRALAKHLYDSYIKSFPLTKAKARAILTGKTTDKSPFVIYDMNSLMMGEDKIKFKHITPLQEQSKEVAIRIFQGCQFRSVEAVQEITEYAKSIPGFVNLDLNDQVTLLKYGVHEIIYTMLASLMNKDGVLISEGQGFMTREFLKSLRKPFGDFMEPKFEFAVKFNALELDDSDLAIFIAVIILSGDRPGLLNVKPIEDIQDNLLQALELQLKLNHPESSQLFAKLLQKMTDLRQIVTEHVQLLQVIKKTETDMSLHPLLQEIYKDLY
EXPERIMENT SUMMARY: Binding affinity to human PPARgamma by scintillation proximity assay
pIC50: −log10 of the molar value.

| SMILES ENTRY | pIC50 |
| --- | --- |
| Cc1ccc2onc(-n3c(=O)n(Cc4ccc(Cl)c(O[C@H](C)C(=O)O)c4)c4cc(C(F)(F)F)ccc43)c2c1 | 7.95 |
| C[C@@H](Oc1cc(Cn2c(=O)n(-c3noc4ccc(Cl)cc34)c3ccc(C(F)(F)F)cc32)ccc1Cl)C(=O)O | 7.45 |
| COc1ccc2c(-n3c(=O)n(Cc4ccc(Cl)c(O[C@H](C)C(=O)O)c4)c4ccc(OC(F)(F)F)cc43)noc2c1 | 8.39 |
| C[C@@H](Oc1cc(Cn2c(=O)n(-c3ccc(C(C)(C)C)cc3)c3ccc(C(F)(F)F)cc32)ccc1Cl)C(=O)O | 6.79 |
| COc1ccc2c(-n3c(=O)n(Cc4ccc(Cl)c(O[C@@H](C)C(=O)O)c4)c4cc(C(F)(F)F)ccc43)noc2c1 | 7.18 |
| COc1ccc2c(-n3c(=O)n(Cc4cccc([C@@]5(C)OC(O)=NC5=O)c4)c4cc(C(F)(F)F)ccc43)noc2c1 | 7.03 |
| COc1ccc2c(-n3c(=O)n(Cc4cccc(O[C@H](C)C(=O)O)c4)c4cc(C(F)(F)F)ccc43)noc2c1 | 6.03 |
